Test system: TRKC;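 also: KINOMEscan kinase panel screen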
Construct: gene NTRK3
CONDITION NOTES: concentration: 1 μM, replicates: in singlicate; n = 1
EXPERIMENTAL ENDPOINT: %Inh (%)
// note: answer is a bare numeric in %

Here's what some known entries look like.
O=C(NCCCN1CCCC1=O)c1cnc(NCc2cc(Cl)ccc2Cl)nc1NC1CCNCC1 : 15
Cn1ccc2ncnc(Nc3ccc(Oc4cccc(Cl)c4)c(Cl)c3)c21 : 11
COC(=O)c1c(-c2ccccc2)c2cc(Cl)ccc2c(=O)n1Cc1ccc(S(C)(=O)=O)cc1 : 17

State its %Inh for this compound: Clc1ccc(-c2cc(-c3c[nH]nc3-c3ccccn3)ccn2)cc1
100

Specify reported %Inh for the compound shown: Nc1nc(-c2cccnc2)c(-c2ccnc3ccccc23)s1
25

Consider the compound O=C(CCO)NCCn1ccc2ncnc(Nc3ccc(Oc4cccc(C(F)(F)F)c4)c(Cl)c3)c21 and give its recorded %Inh.
0

Provide %Inh value for the following compound: O=C(Nc1ccccc1)Nc1ccc(Oc2ccc3nccn3n2)cc1
0

Determine its reported %Inh: Oc1ccc2ncnc(Nc3ccc(OCc4ccccc4)cc3)c2c1
0

Provide %Inh value for the following compound: CCn1c(-c2ccncc2)nc2cnccc21
36
